# System under test: T1, human DLL3 on cells (human, UniProt Q9NYJ7 27-618)
# T1 construct: Endogenous on H1184 and SHP77; Cell line is named under assay; also called H1184; DLL3/H82
# T1 sequence: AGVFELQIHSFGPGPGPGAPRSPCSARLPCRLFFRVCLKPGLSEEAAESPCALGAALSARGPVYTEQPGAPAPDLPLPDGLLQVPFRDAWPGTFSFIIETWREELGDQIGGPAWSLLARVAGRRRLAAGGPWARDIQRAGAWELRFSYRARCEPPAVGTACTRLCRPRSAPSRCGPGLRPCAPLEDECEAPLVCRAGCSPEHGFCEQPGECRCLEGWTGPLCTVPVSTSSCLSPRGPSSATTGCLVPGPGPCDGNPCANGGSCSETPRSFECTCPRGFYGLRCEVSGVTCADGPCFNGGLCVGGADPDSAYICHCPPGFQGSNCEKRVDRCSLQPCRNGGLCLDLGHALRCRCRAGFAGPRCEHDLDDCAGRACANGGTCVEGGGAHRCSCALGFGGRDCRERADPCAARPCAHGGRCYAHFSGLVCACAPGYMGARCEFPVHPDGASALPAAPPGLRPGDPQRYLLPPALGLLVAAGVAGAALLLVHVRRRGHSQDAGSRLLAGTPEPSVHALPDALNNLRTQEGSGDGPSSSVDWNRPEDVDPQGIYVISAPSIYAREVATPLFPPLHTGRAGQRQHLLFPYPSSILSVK
# Experiment description: flow cytometry, DLL3/H82 cells
Could you please report measured Emax for the items listed next?
Enter the number alone.

Recorded Emax of hu110L2H4 (antibody, human IgG1, kappa, V domains shown) VH: EVQLVQSGAEVKKPGASVKVSCKTSGYTFTDYYMNWVRQAPGQSLEWMGIINPYSGGTSYTQKFKGRVTITVDKSASTAYMELSSLRSEDTAVYYCARHFYDSSYLTYSTMDYWGQGTTVTVSS VL: NIVMTQSPKSLAVSLGERATINCKASENVGIFVSWYQQKPGQSPKLLIYGASNRYTGVPDRFSGSGSATDFTLTISSLQAEDVADYYCGQSHSYPLTFGQGTKLEIKR , please.
4600

Recorded Emax of hu110L1H3 (antibody, human IgG1, kappa, V domains shown) VH: EVQLVQSGAEVKKPGASVKVSCKTSGYTFTDYYMNWVRQAPGQSLEWMGIINPYQGGTSYTQKFKGRVTITVDKSASTAYMELSSLRSEDTAVYYCARHFYDSSYLTYSTMDYWGQGTTVTVSS VL: DIVMTQSPDSLAVSLGERATINCKASENVGIFVSWYQQKPGQSPKLLIYGASNRYTGVPDRFSGSGSATDFTLTISSLQAEDVAVYYCGQSHSYPLTFGQGTKLEIKR , please.
4560

Recorded Emax of hu110L1H4 (antibody, human IgG1, kappa, V domains shown) VH: EVQLVQSGAEVKKPGASVKVSCKTSGYTFTDYYMNWVRQAPGQSLEWMGIINPYSGGTSYTQKFKGRVTITVDKSASTAYMELSSLRSEDTAVYYCARHFYDSSYLTYSTMDYWGQGTTVTVSS VL: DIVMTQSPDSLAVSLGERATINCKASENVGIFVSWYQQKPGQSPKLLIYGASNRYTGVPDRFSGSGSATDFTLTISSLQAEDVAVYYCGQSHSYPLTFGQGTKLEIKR , please.
4580

Recorded Emax of hu110L2H2 (antibody, human IgG1, kappa, V domains shown) VH: EVQLVQSGAEVKKPGASVKVSCKTSGYTFTDYYMNWVRQAPGQSLEWMGIINPYNGGTSYTQKFKGRVTITVDKSASTAYMELSSLRSEDTAVYYCARHFYDSSYLTYSTMDYWGQGTTVTVSS VL: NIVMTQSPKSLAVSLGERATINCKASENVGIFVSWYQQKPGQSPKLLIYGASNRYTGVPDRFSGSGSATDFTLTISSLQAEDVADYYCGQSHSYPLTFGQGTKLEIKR , please.
4750

Recorded Emax of hu110L2H6 (antibody, human IgG1, kappa, V domains shown) VH: EVQLVQSGAEVKKPGASVKVSCKTSGYTFTDYYMNWVRQAPGQSLEWMGIINPYNVGTSYTQKFKGRVTITVDKSASTAYMELSSLRSEDTAVYYCARHFYDSSYLTYSTMDYWGQGTTVTVSS VL: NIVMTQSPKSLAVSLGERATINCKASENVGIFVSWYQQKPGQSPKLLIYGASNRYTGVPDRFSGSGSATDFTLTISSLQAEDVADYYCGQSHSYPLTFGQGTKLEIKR , please.
5190

Recorded Emax of hu110L2H5 (antibody, human IgG1, kappa, V domains shown) VH: EVQLVQSGAEVKKPGASVKVSCKTSGYTFTDYYMNWVRQAPGQSLEWMGIINPYTGGTSYTQKFKGRVTITVDKSASTAYMELSSLRSEDTAVYYCARHFYDSSYLTYSTMDYWGQGTTVTVSS VL: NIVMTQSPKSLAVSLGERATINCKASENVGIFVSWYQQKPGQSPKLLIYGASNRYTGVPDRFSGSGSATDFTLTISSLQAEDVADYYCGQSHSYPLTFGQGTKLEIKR , please.
4670

Recorded Emax of hu110L1H2 (antibody, human IgG1, kappa, V domains shown) VH: EVQLVQSGAEVKKPGASVKVSCKTSGYTFTDYYMNWVRQAPGQSLEWMGIINPYNGGTSYTQKFKGRVTITVDKSASTAYMELSSLRSEDTAVYYCARHFYDSSYLTYSTMDYWGQGTTVTVSS VL: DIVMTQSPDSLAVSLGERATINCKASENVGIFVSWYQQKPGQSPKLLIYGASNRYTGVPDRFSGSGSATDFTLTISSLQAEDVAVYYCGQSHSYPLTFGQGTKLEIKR , please.
4700

Recorded Emax of hu110L1H6 (antibody, human IgG1, kappa, V domains shown) VH: EVQLVQSGAEVKKPGASVKVSCKTSGYTFTDYYMNWVRQAPGQSLEWMGIINPYNVGTSYTQKFKGRVTITVDKSASTAYMELSSLRSEDTAVYYCARHFYDSSYLTYSTMDYWGQGTTVTVSS VL: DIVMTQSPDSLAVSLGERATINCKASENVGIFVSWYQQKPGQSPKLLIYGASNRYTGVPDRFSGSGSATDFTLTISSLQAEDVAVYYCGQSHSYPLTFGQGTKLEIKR , please.
4620

Recorded Emax of hu110L2H1 (antibody, human IgG1, kappa, V domains shown) VH: EVQLVQSGAEVKKPGASVKVSCKASGYTFTDYYMNWVRQAPGQRLEWMGIINPYNGGTSYTQKFKGRVTITVDKSASTAYMELSSLRSEDTAVYYCARHFYDSSYLTYSTMDYWGQGTTVTVSS VL: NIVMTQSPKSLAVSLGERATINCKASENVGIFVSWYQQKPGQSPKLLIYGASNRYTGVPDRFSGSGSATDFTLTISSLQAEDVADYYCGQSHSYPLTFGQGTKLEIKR , please.
4720

Recorded Emax of hu110L1H5 (antibody, human IgG1, kappa, V domains shown) VH: EVQLVQSGAEVKKPGASVKVSCKTSGYTFTDYYMNWVRQAPGQSLEWMGIINPYTGGTSYTQKFKGRVTITVDKSASTAYMELSSLRSEDTAVYYCARHFYDSSYLTYSTMDYWGQGTTVTVSS VL: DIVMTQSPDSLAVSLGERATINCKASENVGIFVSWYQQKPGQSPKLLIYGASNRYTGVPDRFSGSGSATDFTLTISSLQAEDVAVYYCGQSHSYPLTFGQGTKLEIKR , please.
4610
